Test system: MALME-3M melanoma
Experiment: NCI-60 one-dose screen, 48 h (100 = growth as untreated, 0 = no growth, -100 = all killed)
Conditions: 10 µM unless noted
Method: Cells are grown in 96 well plates and exposed to the test compound for 48 hours. Compounds are tested at a single concentration, which is 10^-5 M for most compounds. The reported endpoint is percent growth (GI% or GIPRCNT), where numbers from 0 - 100% represent growth inhibition, and numbers from -100% - 0 represent cell death. For example, a value of 40 represents 60% growth inhibition. A value of 0 means no net growth occurred over the course of the experiment. […]
This is part of a sample that, as a whole, favours compounds with a hit. Of some 83,000 tested, about 20% had one in any assay.
growth values, listed per item

[
  {
    "mol": "Cc1cc2nc(C)c(C)nc2cc1C",
    "units.text": "%",
    "growth": 109
  },
  {
    "mol": "CCOC(=O)C(COS(C)(=O)=O)(COS(C)(=O)=O)C(=O)OCC",
    "units.text": "%",
    "growth": 122
  },
  {
    "mol": "Nc1ncnc(Nc2ccc(C(F)(F)F)cc2)n1",
    "units.text": "%",
    "growth": 105
  },
  {
    "mol": "CC(C)=CCC[C@@H](C)[C@H]1CC[C@@]2(C)C3=C(CC[C@]12C)[C@@]1(C)CC[C@H](O)C(C)(C)[C@@H]1CC3",
    "units.text": "%",
    "growth": 110
  },
  {
    "mol": "CC(=O)/C(C)=N\\OC(=O)Nc1ccccc1",
    "units.text": "%",
    "growth": 104
  }
]

---

Test system: IGROV1 ovarian
Test: NCI-60 one-dose screen, 48 h
Details: 10 µM unless noted
The panel holds about 83,000 compounds, 20% with a hit somewhere; the sample as a whole holds those more often. The source made the active and inactive calls. The calls were made as follows: active = growth percent below 10; inactive = the rest.
Labels: active, inactive

[
  {
    "compound": "COC(CCCl)c1ccc(Cl)cc1 (stereo not given)",
    "label": "inactive"
  },
  {
    "compound": "C1CCc2onc(-c3noc4c3CCCCC4)c2CC1",
    "label": "inactive"
  },
  {
    "compound": "O=c1cc(C(F)(F)F)[nH]c(=S)[nH]1",
    "label": "inactive"
  },
  {
    "compound": "O=C(Nc1ccc([N+](=O)[O-])cc1)C(=O)Nc1ccc([N+](=O)[O-])cc1",
    "label": "inactive"
  },
  {
    "compound": "Cc1[nH]n(-c2ccccc2)c(=O)c1C=NC(=S)C(N)=S",
    "label": "inactive"
  },
  {
    "compound": "O=C1CSc2ccccc2N1",
    "label": "inactive"
  },
  {
    "compound": "CSCCC(NC(=O)C(Cl)Cl)C(=O)O (stereo not given)",
    "label": "inactive"
  },
  {
    "compound": "O=S(=O)(O)c1cccc2cccnc12",
    "label": "inactive"
  },
  {
    "compound": "CN(C)CCOC(=O)Nc1ccc(Cc2ccc(NC(=O)OCCN(C)C)cc2)cc1",
    "label": "inactive"
  },
  {
    "compound": "CCN1CCCC(N2c3ccccc3Sc3ccccc32)C1 (stereo not given)",
    "label": "inactive"
  },
  {
    "compound": "COC(c1ccc2c(c1)OCO2)C(C)Br (stereo not given)",
    "label": "inactive"
  },
  {
    "compound": "Cn1c(=O)c2nc3c(=O)n(C)c(=O)n(C)c3nc2n(C)c1=O",
    "label": "inactive"
  },
  {
    "compound": "CC(=O)NCNC(C)=O",
    "label": "inactive"
  },
  {
    "compound": "CC(=O)N=c1ccc2nc3c(cc(N)c4ccccc43)oc-2c1",
    "label": "active"
  },
  {
    "compound": "CCNc1ncnc2[nH]ncc12",
    "label": "inactive"
  }
]

---

Tested on: HOP-92 NSCLC
Test: NCI-60 one-dose screen, 48 h
Settings: 10 µM unless noted
This is part of a sample that, as a whole, favours compounds with a hit. Of some 83,000 tested, about 20% had one in any assay. Activity calls are given as the source filed them. The calls were made as follows: active = growth percent below 10; inactive = the rest.
Labels: active, inactive

[
  {
    "compound": "Nc1ccn(C2OC(CO)C(O)C2F)c(=O)n1 (centres undefined)",
    "test.target": "HOP-92 NSCLC",
    "label": "inactive"
  },
  {
    "compound": "Nc1ncnc(Nc2ccc(C(F)(F)F)cc2)n1",
    "test.target": "HOP-92 NSCLC",
    "label": "inactive"
  },
  {
    "compound": "CCNc1ncnc2[nH]ncc12",
    "test.target": "HOP-92 NSCLC",
    "label": "inactive"
  },
  {
    "compound": "CC(=O)NC(CCc1ccc(Cl)c(Cl)c1)c1cccc(O)c(=O)c1 (centres undefined)",
    "test.target": "HOP-92 NSCLC",
    "label": "active"
  },
  {
    "compound": "Oc1cccnc1CN1CCCC1",
    "test.target": "HOP-92 NSCLC",
    "label": "inactive"
  },
  {
    "compound": "N#Cc1ccc(OC(=O)Nc2cc(Cl)cc(Cl)c2)cc1",
    "test.target": "HOP-92 NSCLC",
    "label": "active"
  },
  {
    "compound": "CCCCCCCCCCCCCCCCCC(=O)NCCNC(=O)CCCCCCCCCCCCCCCCC",
    "test.target": "HOP-92 NSCLC",
    "label": "inactive"
  },
  {
    "compound": "COc1cc(C(=O)N2CCN(c3ccccc3)CC2)c2ccccc2n1",
    "test.target": "HOP-92 NSCLC",
    "label": "inactive"
  },
  {
    "compound": "S=C=Nc1ccc2ccccc2c1",
    "test.target": "HOP-92 NSCLC",
    "label": "inactive"
  },
  {
    "compound": "CC(C)(C)NCCC(O)c1cc(C(F)(F)F)nc2c(C(F)(F)F)cccc12 (centres undefined)",
    "test.target": "HOP-92 NSCLC",
    "label": "inactive"
  },
  {
    "compound": "Cc1cc(C)cc(OCC(=O)O)c1",
    "test.target": "HOP-92 NSCLC",
    "label": "inactive"
  },
  {
    "compound": "Cc1ccc(S(N)(=O)=O)cc1Cl",
    "test.target": "HOP-92 NSCLC",
    "label": "inactive"
  },
  {
    "compound": "CN(C(=S)S(=O)(=O)C12CC3CC(CC(C3)C1)C2)c1ccccc1",
    "test.target": "HOP-92 NSCLC",
    "label": "inactive"
  },
  {
    "compound": "O=C(c1ccc(Cl)cc1)N1CCCCC1",
    "test.target": "HOP-92 NSCLC",
    "label": "inactive"
  }
]

---

growth values, listed per item
System: MOLT-4 leukemia
Test: NCI-60 one-dose screen, 48 h (100 = growth as untreated, 0 = no growth, -100 = all killed)
Conditions: 10 µM unless noted
The panel holds about 83,000 compounds, 20% with a hit somewhere; the sample as a whole holds those more often.

[
  {
    "compound": "Oc1cccnc1CN1CCCC1",
    "growth [%]": 94.2
  },
  {
    "compound": "Cc1cc2c(C(C)C)c(O)c(O)c(C=Nc3ccccc3[N+](=O)[O-])c2c(O)c1-c1c(C)cc2c(C(C)C)c(O)c(O)c(C=Nc3ccccc3[N+](=O)[O-])c2c1O",
    "growth [%]": 26.2
  },
  {
    "compound": "CCNCC(C)(C)O",
    "growth [%]": 99.2
  },
  {
    "compound": "O=Cc1c(O)c2ccccc2[nH]c1=O",
    "growth [%]": 104
  },
  {
    "compound": "Cc1ccc2nc(-c3ccc(N=Cc4ccccc4O)cc3)sc2c1",
    "growth [%]": 82.3
  },
  {
    "compound": "O=S(=O)(O)c1ccc(O)c(C2CCCCC2)c1",
    "growth [%]": 99.9
  },
  {
    "compound": "C=CCN1CCCC1=O",
    "growth [%]": 93.8
  },
  {
    "compound": "CC(C)(C)[Si](C)(C)OCC1OC(n2cnc3c(N)ncnc32)CC1OS(C)(=O)=O (configuration not stated)",
    "growth [%]": 105
  },
  {
    "compound": "CCC(C)c1c(N)n(S(=O)(=O)c2ccc(C)cc2)oc1=O (configuration not stated)",
    "growth [%]": 109
  },
  {
    "compound": "O=C1NC(=O)/C(=C\\c2ccncc2)N1",
    "growth [%]": 111
  },
  {
    "compound": "Ic1cccs1",
    "growth [%]": 98.9
  },
  {
    "compound": "COc1ccc(C2CCCCC2=O)cc1 (configuration not stated)",
    "growth [%]": 97.9
  },
  {
    "compound": "C=C(C)[C@@H]1CC[C@]2(CO)CC[C@]3(C)[C@H](CC[C@@H]4[C@@]5(C)CC[C@H](O)C(C)(C)[C@@H]5CC[C@]43C)[C@@H]12",
    "growth [%]": 71.1
  },
  {
    "compound": "CC1=CC(=Nc2ccc(N(C)C)cc2)C=C(C)C1=O",
    "growth [%]": 87.6
  },
  {
    "compound": "Cc1cc(CO)c(O)c(CO)c1",
    "growth [%]": 21.4
  },
  {
    "compound": "CCC(C)C1CCC(O)CC1 (configuration not stated)",
    "growth [%]": 104
  },
  {
    "compound": "NC(=O)OCCO",
    "growth [%]": 97.7
  }
]
